// reported mass density per item
test: mn = molality of the nth substance listed, in mol/kg; conditions: 298.15 K; 101 kPa; Liquid; m2 = 0
Write the value in kg/m3 as a bare number.

Short answer for C[S+](C)[O-] [dimethyl sulfoxide] + [Cu+2].[O-][Cl+3]([O-])([O-])[O-].[O-][Cl+3]([O-])([O-])[O-] : mass density was 1095.2

Short answer for CO [methanol] + [Ni+2].[O-][Cl+3]([O-])([O-])[O-].[O-][Cl+3]([O-])([O-])[O-] : mass density was 786.46

Short answer for C[S+](C)[O-] [dimethyl sulfoxide] + [O-][Cl+3]([O-])([O-])[O-].[O-][Cl+3]([O-])([O-])[O-].[Zn+2] : mass density was 1095.2

Short answer for C[S+](C)[O-] [dimethyl sulfoxide] + [Ni+2].[O-][Cl+3]([O-])([O-])[O-].[O-][Cl+3]([O-])([O-])[O-] : mass density was 1095.19

Short answer for C[S+](C)[O-] [dimethyl sulfoxide] + [Co+2].[O-][Cl+3]([O-])([O-])[O-].[O-][Cl+3]([O-])([O-])[O-] : mass density was 1095.19

Short answer for CO [methanol] + [Co+2].[O-][Cl+3]([O-])([O-])[O-].[O-][Cl+3]([O-])([O-])[O-] : mass density was 786.464

Short answer for CO [methanol] + O=S(=O)([O-])C(F)(F)F.O=S(=O)([O-])C(F)(F)F.[Cu+2] : mass density was 786.452

Short answer for C[S+](C)[O-] [dimethyl sulfoxide] + [Mn+2].[O-][Cl+3]([O-])([O-])[O-].[O-][Cl+3]([O-])([O-])[O-] : mass density was 1095.19

* * *

experiment: mn = molality of the nth substance listed, in mol/kg; conditions: 333.15 K; 101 kPa; Liquid; m2 = 0
QUANTITY MEASURED: mass density (kg/m3)
Write the value in kg/m3 as a bare number.

INSERT INTO assay_data (compound, observed_result) VALUES
  ('C[S+](C)[O-] [dimethyl sulfoxide] + [Mn+2].[O-][Cl+3]([O-])([O-])[O-].[O-][Cl+3]([O-])([O-])[O-]', 1060.04),
  ('C[S+](C)[O-] [dimethyl sulfoxide] + [Cu+2].[O-][Cl+3]([O-])([O-])[O-].[O-][Cl+3]([O-])([O-])[O-]', 1060.04),
  ('C[S+](C)[O-] [dimethyl sulfoxide] + [Co+2].[O-][Cl+3]([O-])([O-])[O-].[O-][Cl+3]([O-])([O-])[O-]', 1060.03),
  ('C[S+](C)[O-] [dimethyl sulfoxide] + [O-][Cl+3]([O-])([O-])[O-].[O-][Cl+3]([O-])([O-])[O-].[Zn+2]', 1060.04);

Now for the compound whose mass density we want.
Short answer for C[S+](C)[O-] [dimethyl sulfoxide] + [Ni+2].[O-][Cl+3]([O-])([O-])[O-].[O-][Cl+3]([O-])([O-])[O-] : mass density was 1060.04

* * *

// reported mass density per item
test: mn = molality of the nth substance listed, in mol/kg; conditions: 303.15 K; 101 kPa; Liquid; m2 = 0
Write the value in kg/m3 as a bare number.

Some molecules with known mass density results, for comparison:
INSERT INTO assay_data (molecule, observed_result) VALUES
  ('CO [methanol] + O=S(=O)([O-])C(F)(F)F.O=S(=O)([O-])C(F)(F)F.[Cu+2]', 781.722),
  ('C[S+](C)[O-] [dimethyl sulfoxide] + [Ni+2].[O-][Cl+3]([O-])([O-])[O-].[O-][Cl+3]([O-])([O-])[O-]', 1090.17),
  ('CO [methanol] + [Ni+2].[O-][Cl+3]([O-])([O-])[O-].[O-][Cl+3]([O-])([O-])[O-]', 781.733),
  ('C[S+](C)[O-] [dimethyl sulfoxide] + [O-][Cl+3]([O-])([O-])[O-].[O-][Cl+3]([O-])([O-])[O-].[Zn+2]', 1090.18),
  ('C[S+](C)[O-] [dimethyl sulfoxide] + [Co+2].[O-][Cl+3]([O-])([O-])[O-].[O-][Cl+3]([O-])([O-])[O-]', 1090.18),
  ('C[S+](C)[O-] [dimethyl sulfoxide] + [Cu+2].[O-][Cl+3]([O-])([O-])[O-].[O-][Cl+3]([O-])([O-])[O-]', 1090.18),
  ('CO [methanol] + [Co+2].[O-][Cl+3]([O-])([O-])[O-].[O-][Cl+3]([O-])([O-])[O-]', 781.742);

Now for the molecule whose mass density we want.
Short answer for C[S+](C)[O-] [dimethyl sulfoxide] + [Mn+2].[O-][Cl+3]([O-])([O-])[O-].[O-][Cl+3]([O-])([O-])[O-] : mass density was 1090.17
